The reported measurements were obtained from ChEMBL document CHEMBL1773004.

Experiment: Permeability from apical to basolateral side of MDR1 transfected MDCK cells at 1 uM
Assay type: ADME, cell-based, Canis lupus familiaris
Details: dog, read-out: permeability
Listing of entries alongside the reported Papp A→B at 1 µM.
value.kind: Papp A→B at 1 µM (×10⁻⁶ cm/s)

> print(dat)
                                  structure        value.kind  quantitative.result
1  COc1cc(C(F)(F)F)ccc1[C@@H]1CCN(Cc2nc3ncccc3n2C)C[C@@H]1C  Papp A→B at 1 µM                   19
2  C[C@H]1CN(Cc2nc3ncccc3n2C)CC[C@H]1c1ccc(OC(F)(F)F)cc1F  Papp A→B at 1 µM                   14
3  C[C@H]1CN(Cc2nc3ncccc3n2C)CC[C@H]1c1ccc(C(F)(F)F)cc1F  Papp A→B at 1 µM                   26
4  Cn1c(CN2CCC(c3ccc(C(F)(F)F)cc3)CC2)nc2ncccc21  Papp A→B at 1 µM                   30
5       COc1ccccc1C1CCN(Cc2nc3ccccc3n2C)CC1  Papp A→B at 1 µM                 25.8
